- tgt: β2 -adrenergic receptor (Rattus norvegicus)
- Construct: longitudinal uterine muscle strips (about 15 mm in length and about 5 mm in width) free from the basal plate were prepared
- Sequence (P10608 whole entry): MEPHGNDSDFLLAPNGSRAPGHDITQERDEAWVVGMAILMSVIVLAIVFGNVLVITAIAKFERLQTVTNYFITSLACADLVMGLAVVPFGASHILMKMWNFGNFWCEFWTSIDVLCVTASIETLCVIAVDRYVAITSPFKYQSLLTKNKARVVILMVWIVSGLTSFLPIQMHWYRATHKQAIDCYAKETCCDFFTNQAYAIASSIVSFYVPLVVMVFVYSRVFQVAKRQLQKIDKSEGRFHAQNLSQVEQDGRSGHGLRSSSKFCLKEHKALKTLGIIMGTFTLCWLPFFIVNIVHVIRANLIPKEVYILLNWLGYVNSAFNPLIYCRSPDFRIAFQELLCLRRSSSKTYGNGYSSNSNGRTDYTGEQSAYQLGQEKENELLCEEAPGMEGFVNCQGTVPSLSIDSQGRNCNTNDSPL
- protocol-details: Spontaneous contractions of isolated pregnant rat myometrium (β2-adrenergic receptor stimulating activity)
- test-parameters: isolated pregnant rat uterus (SD, pregnancy day 21), Magnus method; read-out: EC50 value (activity to relax 50% of the spontaneous contractions of rat myometrium)
reported-endpoint: EC50 (nM)
Answers are plain numbers, in nM.

State the recorded EC50 for this entry: CN(C)C(=O)COc1ccc2c(c1)C[C@@H](NC[C@H](O)c1ccc(O)cc1)CC2 15

meta.source: patent US6046192A
